molecular target: Glucose-6-phosphatase catalytic subunit 1 (Rattus norvegicus); test: Inhibition of rat liver glucose-6-phosphatase at 100 uM
For each of the compounds below, state its inhibition.
Answers are plain numbers, in %.

compound=O=C(/C=C/c1ccc(O)cc1)C[C@@H]1O[C@H](CO)[C@@H](O)[C@H](O)[C@H]1O reading=4.2
compound=O=C(/C=C/c1ccc(Cl)cc1)C[C@@H]1OC[C@@H](O)[C@H](O)[C@H]1O reading=4.7
compound="CCOC(=O)C(C(=O)OCC)C(CC(=O)C[C@@H]1O[C@H](CO)[C@@H](O)[C@H](O)[C@H]1O)c1ccc(Cl)cc1 (mixture of isomers)" reading=-6
compound=O=C(/C=C/c1ccc2ccccc2c1)C[C@@H]1O[C@H](CO)[C@@H](O[C@@H]2O[C@H](CO)[C@@H](O)[C@H](O)[C@H]2O)[C@H](O)[C@H]1O reading=-3.9
compound="CCOC(=O)C(C(=O)OCC)C(CC(=O)C[C@@H]1O[C@H](CO)[C@@H](O)[C@H](O)[C@H]1O)c1ccc(OC)c(OC)c1 (mixture of isomers)" reading=36.2
compound="CCOC(=O)C(C(=O)OCC)C(CC(=O)C[C@@H]1O[C@H](CO)[C@@H](O)[C@H](O)[C@H]1O)c1cccnc1 (mixture of isomers)" reading=37.6

Now look at this entry.
What measured inhibition goes with COc1cc(/C=C/C(=O)C[C@@H]2O[C@H](CO)[C@@H](O)[C@H](O)[C@H]2O)cc(OC)c1OC ?
4.7
